Attribution: ChEMBL document CHEMBL1154783

- tested on: NAD-dependent protein deacetylase sirtuin-2 (Homo sapiens) (UniProt Q8IXJ6)
- Sequence (Q8IXJ6 whole entry): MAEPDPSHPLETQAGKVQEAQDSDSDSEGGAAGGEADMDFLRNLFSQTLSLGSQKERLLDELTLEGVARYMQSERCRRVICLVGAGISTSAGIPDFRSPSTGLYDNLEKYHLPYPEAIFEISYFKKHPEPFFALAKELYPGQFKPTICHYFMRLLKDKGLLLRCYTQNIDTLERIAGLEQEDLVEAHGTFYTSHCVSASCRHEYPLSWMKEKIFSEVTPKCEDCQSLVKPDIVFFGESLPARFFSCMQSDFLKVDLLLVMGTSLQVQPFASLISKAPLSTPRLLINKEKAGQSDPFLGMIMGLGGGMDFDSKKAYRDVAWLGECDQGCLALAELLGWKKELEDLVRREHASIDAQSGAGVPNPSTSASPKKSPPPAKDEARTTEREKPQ
- assay comment: Inhibition of human SIRT2 expressed in Escherichia coli at 50 uM after 1 hr by fluorescent biochemical assay
The source made the active and inactive calls. The calls are words filed in the database; no cut-off is given here.
readout name: inhibition

Previously resolved entries follow.
CCOC(=O)C1=CN(Cc2ccccc2)C=C(C(=O)OCC)C1c1ccccc1: inactive
NC(=O)C1=CN(Cc2ccccc2)C=C(C(N)=O)C1c1ccccc1: inactive
O=C(O)C1=CN(Cc2ccccc2)C=C(C(=O)O)C1c1ccccc1: inactive
CCOC(=O)C1=CN(C2CC2)C=C(C(=O)OCC)C1c1ccccc1: 53.7%
CCOC(=O)C1=CN(CCc2ccccc2)C=C(C(=O)OCC)C1c1ccccc1: 49.6%

Switching to the query record.
Consider the molecule shown here: CCOC(=O)C1=CN(c2ccccc2)C=C(C(=O)OCC)C1c1ccccc1 What is its recorded inhibition?
51.3%
